experiment: Acute toxicity, intravenous, mice
details: mouse, in vivo, ICR strain male mice, 22±1 g, in 0.1N aqueous sodium hydroxide, read-out: 50% lethal dosage (LD50)
property-label: LD50

Look up LD50: `C[C@H]1COc2c(C3(N)CC3)c(F)cc3c(=O)c(C(=O)O)cn1c23.Cl`
> 1000 mg/kg

###

Task for the reader: assign each of the following compounds its reported MIC.
System: K. pneumoniae Y-4*
experiment: MIC, agar dilution, standard method of Japan Society of Chemotherapy
Type: cell-based
details: Klebsiella pneumoniae; K. pneumoniae Y-4, β-Lactamase-producing; Heart Infusion agar, 37° C., 20 hours, 10^4 cells/plate (10^6 cells/ml); read-out: MIC
Protocol: According to the standard method of Japan Society of Chemotherapy [CHEMOTHERAPY, 29 (1), 76-79 (1981)], a bacteria solution obtained by culturing in Heart Infusion broth (manufactured by Eiken Kagaku) at 37° C. for 20 hours was inoculated onto a Heart Infusion agar containing a drug and cultured at 37° C. for 20 hours, after which the growth of the bacteria was observed, to determine the minimum concentration at which the growth of the bacteria was inhibited as MIC (μg/ml). […]
Write it as a number; the unit µg/mL goes unstated.

Look up MIC: Cl.NC1(c2c(F)cc3c(=O)c(C(=O)O)cn4c3c2OCC4CF)CC1 (stereo not shown) [Test Compound 6]
0.2

Look up MIC: CC1CC1(N)c1c(F)cc2c(=O)c(C(=O)O)cn3c2c1OC[C@@H]3C.Cl (stereo partly shown) [Test Compound 10]
0.2

Look up MIC: Br.C=C1COc2c(C3(N)CC3)c(F)cc3c(=O)c(C(=O)O)cn1c23 [Test Compound 8]
0.2

Look up MIC: CC[C@H]1COc2c(C3(N)CC3)c(F)cc3c(=O)c(C(=O)O)cn1c23.Cl [Test Compound 7]
0.2

Look up MIC: CC1COc2c(C3(N)CC3)c(F)cc3c(=O)c(C(=O)O)cn1c23.Cl (stereo not shown) [Test Compound 1]
0.2

Look up MIC: CNC1(c2c(F)cc3c(=O)c(C(=O)O)cn4c3c2OC[C@@H]4C)CC1.Cl [Test Compound 11]
0.1
